Source of measurements: PubChem BioAssay AID1159580

Test: chemical genetic growth profiling, strain panel (AID 1159580);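 note: tested at 20 µM; growth read once vehicle control cultures reached saturation at 30 °C; 1 = growth at the plate median or of vehicle wells; lower values mean less growth of the strain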
Settings: S. cerevisiae deletion strains, growth OD, locus YER123W, strain YCK3, active compounds read low
The whole screen tested about 5,500 compounds, of which about 2,000 (36%) were called active. Inconclusive results (about 18%) are left out. The list shows a part of the results.
observation_type: normalized growth

• O=C(CCN1CCCCC1)c1ccc(-c2ccccc2)cc1 = 0.892
• S=C(Nc1cc(-c2cccs2)[nH]n1)Nc1ccccc1Cl = 0.755
• N#Cc1c(Cl)c(Cl)c(Cl)c(Cl)c1C#N = 0.169
• O=C(Nc1cc(Cl)cc(Cl)c1)Nc1cc(-c2cccs2)[nH]n1 = 0.712
• NCCCN=c1ccc2c3c1c(O)c1c(O)ccc(=O)c1c3[nH]n2CCNCCO = 0.978
• Cc1c(C(=O)N2CCCCC2)cc(-c2ccccc2)n1-c1ccccc1 = 0.896
• C/C(=N/NC(N)=S)c1ccccn1 = 0.874
• NC(N)=Nc1nc(-c2cc(Cl)sc2Cl)cs1 = 0.862
• N#C/C(=C\c1ccccc1Sc1ccc(Cl)cc1)S(=O)(=O)c1ccccn1 = 0.88
• N#C/C(=N/Nc1ccccc1Cl)S(=O)(=O)c1ccc(Cl)cc1 = 0.882
• O=C(Oc1cc(Cl)c(Cl)cc1Cl)C1c2ccccc2Oc2ccccc21 = 0.961
• CC(C)(C)C1=NN(c2nc3ccc(Cl)cc3s2)C(=O)C1 = 0.0976
• Cc1ccccc1C(=O)N1CCc2c([nH]c3ccccc23)C1C(F)(F)F (stereo not drawn) = 0.9
• Cn1c([N+](=O)[O-])cnc1/C=C(\C#N)C(=O)Nc1ccc(F)cc1 = 0.408
• O=C(Nc1cc(Cl)cc(Cl)c1)Nc1cc(-c2ccco2)[nH]n1 = 0.15
• O=[N+]([O-])c1cc(C(F)(F)F)ccc1-n1ccc(-c2cccs2)n1 = 0.846
• Cc1oc2c(F)c(F)c(F)c(F)c2c1C(=O)ONC(N)c1ccc(OS(=O)(=O)N(C)C)cc1 (stereo not drawn) = 0.926
• C/C(=N/NC(N)=S)c1ccc(Oc2c(Cl)cncc2Cl)cc1 = 0.989
